Assay: Solubility at 37° C. in buffers and biorelevant media, XRPD of residual solid
Type: physicochemical
Conditions: thermodynamic from solid; Water, 37° C., 24 h
quantity_measured: solubility at 24 h (µg/mL)
Please state the figure in µg/mL; there is no need to write the unit.

[
  {
    "molecule": "CCOc1cc(C(=O)N(C)Cc2cnc(CO)c3cn[nH]c23)ccc1-c1cc(F)cc(F)c1.O=P(O)(O)O [Phosphate salt Pattern A]",
    "quantity_measured": "solubility at 24 h",
    "recorded_measurement": 442
  },
  {
    "molecule": "CCOc1cc(C(=O)N(C)Cc2cnc(CO)c3cn[nH]c23)ccc1-c1cc(F)cc(F)c1.Cl [HCl salt Pattern A]",
    "quantity_measured": "solubility at 24 h",
    "recorded_measurement": 504
  },
  {
    "molecule": "CCOc1cc(C(=O)N(C)Cc2cnc(CO)c3cn[nH]c23)ccc1-c1cc(F)cc(F)c1 [Free form Pattern A]",
    "quantity_measured": "solubility at 24 h",
    "recorded_measurement": 4.6
  }
]

Now let's try a different one.
Q: I am curious: what solubility at 24 h value has been reported for CCOc1cc(C(=O)N(C)Cc2cnc(CO)c3cn[nH]c23)ccc1-c1cc(F)cc(F)c1.[Na] [Sodium salt Pattern A] ?
Result: 8.2

----------
Listing of recorded solubility at 24 h by entry.
Test: Solubility at 37° C. in buffers and biorelevant media, XRPD of residual solid
Assay type: physicochemical
Details: aqueous buffer, thermodynamic from solid; pH 6.8 phosphate buffer (50 mM), 37° C., 24 h
Field: numeric (µg/mL). Do not append units.

Known solubility at 24 h results, listed for orientation:
[
  {
    "compound": "CCOc1cc(C(=O)N(C)Cc2cnc(CO)c3cn[nH]c23)ccc1-c1cc(F)cc(F)c1 [Free form Pattern A]",
    "solubility at 24 h / µg/mL": 4.3
  },
  {
    "compound": "CCOc1cc(C(=O)N(C)Cc2cnc(CO)c3cn[nH]c23)ccc1-c1cc(F)cc(F)c1.Cl [HCl salt Pattern A]",
    "solubility at 24 h / µg/mL": 2.3
  },
  {
    "compound": "CCOc1cc(C(=O)N(C)Cc2cnc(CO)c3cn[nH]c23)ccc1-c1cc(F)cc(F)c1.[Na] [Sodium salt Pattern A]",
    "solubility at 24 h / µg/mL": 2.8
  }
]

Q: Find the recorded solubility at 24 h belonging to CCOc1cc(C(=O)N(C)Cc2cnc(CO)c3cn[nH]c23)ccc1-c1cc(F)cc(F)c1.O=P(O)(O)O [Phosphate salt Pattern A] and report it.
Result: 2.9

----------
Experiment: Hygroscopicity by dynamic vapor sorption (DVS) at 25° C.
Assay type: physicochemical
Details: DVS at 25° C.
quantity_measured: XRPD after DVS test

[
  {
    "molecule": "CCOc1cc(C(=O)N(C)Cc2cnc(CO)c3cn[nH]c23)ccc1-c1cc(F)cc(F)c1 [Free form Pattern A]",
    "recorded_measurement": "No form change"
  },
  {
    "molecule": "CCOc1cc(C(=O)N(C)Cc2cnc(CO)c3cn[nH]c23)ccc1-c1cc(F)cc(F)c1.Cl [HCl salt Pattern A]",
    "recorded_measurement": "No form change"
  },
  {
    "molecule": "CCOc1cc(C(=O)N(C)Cc2cnc(CO)c3cn[nH]c23)ccc1-c1cc(F)cc(F)c1.O=P(O)(O)O [Phosphate salt Pattern A]",
    "recorded_measurement": "No form change"
  }
]
